Data origin: paper PMC4583475

Hi there, I'd appreciate the recorded recognition threshold, fold range across subjects for every entry that follows.
System: bitter taste perception of 48 Caucasian subjects
Run Description: Human psychophysical bitter taste tests (4-AFC recognition thresholds, gLMS intensity ratings)
Format: in vivo
Run Parameters: 48 human subjects
The figure you give is taken to be in fold; do not add the unit.

Item under review: COC1=C[C@@H](C)[C@@H]2C[C@H]3OC(=O)C[C@H]4C(C)=C(OC)C(=O)[C@H]([C@@]2(C)C1=O)[C@@]34C . Reported recognition threshold, fold range across subjects?
38

# query: recognition threshold, fold range across subjects of entry CC(=O)O[C@@H]1C[C@]2(C)[C@H](CC[C@@H](O)[C@]2(C)O)[C@@](C=O)(C[C@@H](O)c2ccoc2)[C@@H]1C
17

Consider the molecule shown here: CC1=C[C@H]2[C@H]3[C@H](C(C)=C4[C@H]5OC(=O)[C@@H](C)[C@@H]5CC[C@](C)(O)[C@@H]43)[C@@]13[C@@H]2[C@@](C)(O)CC[C@H]1[C@H](C)C(=O)O[C@@H]13 What is its recorded recognition threshold, fold range across subjects?
40

Any idea what its recognition threshold, fold range across subjects is? The molecule is C=C1C(=O)O[C@H]2[C@H]1[C@@H](O)CC(=C)[C@@H]1CC(=O)[C@@H](C)[C@H]21
25

* * *

Consider the following compounds; for each one, report its pEC50.
Tested Target: TAS2R46-H1 (Homo sapiens)
Construct: N-terminal signal for cell surface localisation (N)
Sequence (P59540 whole entry): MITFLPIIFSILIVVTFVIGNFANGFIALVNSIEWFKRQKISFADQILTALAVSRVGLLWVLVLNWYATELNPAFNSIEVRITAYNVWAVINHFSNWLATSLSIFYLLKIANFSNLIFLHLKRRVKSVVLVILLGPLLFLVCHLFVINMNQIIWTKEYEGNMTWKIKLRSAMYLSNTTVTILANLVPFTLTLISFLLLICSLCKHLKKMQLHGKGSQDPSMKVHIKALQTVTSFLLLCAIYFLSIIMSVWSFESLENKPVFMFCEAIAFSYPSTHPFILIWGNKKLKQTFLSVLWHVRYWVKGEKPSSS
Run Description: Calcium imaging in HEK 293T Gα16gust44 cells transfected with TAS2R46-H1
In plain terms, pEC50 is the concentration in mol/L turned into minus its base-10 logarithm.

Recorded pEC50 for C=C1C(=O)O[C@H]2[C@H]1[C@@H](O)CC(=C)[C@@H]1CC(=O)[C@@H](C)[C@H]21 , please?
5.25

For the compound CC1=C[C@H]2[C@H]3[C@H](C(C)=C4[C@H]5OC(=O)[C@@H](C)[C@@H]5CC[C@](C)(O)[C@@H]43)[C@@]13[C@@H]2[C@@](C)(O)CC[C@H]1[C@H](C)C(=O)O[C@@H]13 , what pEC50 is on record?
4.96

* * *

Test system: TAS2R30-H2
Run Description: Calcium imaging in HEK 293T Gα16gust44 cells transfected with TAS2R30-H2
Assay type: cell-based, human
Assay Readout: EC50 (nM)
# unit: nM | format: bare number

Quick check: EC50 of CC1=C[C@H]2[C@H]3[C@H](C(C)=C4[C@H]5OC(=O)[C@@H](C)[C@@H]5CC[C@](C)(O)[C@@H]43)[C@@]13[C@@H]2[C@@](C)(O)CC[C@H]1[C@H](C)C(=O)O[C@@H]13 ?
1300
